conditions: human gut metagenome, 24 h, 2 µM; note: call rule not given here
quantity: Bacterial Biotransformation

compound	result
CNCC[C@H](Oc1cccc2ccccc12)c1cccs1 [DULOXETINE]	Compound NOT metabolized
N#Cc1ccc2c(c1)N(CCCN1CCC(O)CC1)c1ccccc1S2 [PERICIAZINE]	Compound metabolized
CCN(CC)C(=O)C1(c2ccccc2)CC1CN (stereo not given)	Compound NOT metabolized
CC(C)(C)NCC(O)c1cc(Cl)c(N)c(Cl)c1 (stereo not given) [CLENBUTEROL]	Compound NOT metabolized
COc1cc(C(=O)NCc2ccc(OCCN(C)C)cc2)cc(OC)c1OC [TRIMETHOBENZAMIDE]	Compound NOT metabolized
CN(C)CCOC(c1ccc(Cl)cc1)c1ccccn1.O=C(O)/C=C\C(=O)O (stereo not given) [CARBINOXAMINE MALEATE]	Compound NOT metabolized
CC#CCn1c(N2CCC[C@@H](N)C2)nc2c1c(=O)n(Cc1nc(C)c3ccccc3n1)c(=O)n2C [LINAGLIPTIN]	Compound NOT metabolized
Cc1ccccc1C(OCCN(C)C)c1ccccc1.O=C(O)CC(O)(CC(=O)O)C(=O)O (stereo not given) [ORPHENADRINE CITRATE]	Compound metabolized
CN(C)CCC=C1c2ccccc2COc2ccccc21 [DOXEPIN]	Compound NOT metabolized
Clc1cccc(Cl)c1N=C1NCCN1 [CLONIDINE]	Compound NOT metabolized
